Provenance of the data: patent US10889611B2

melting point for assorted compounds

Reported melting point, compound C[C@H](CCC(=O)OCCOCCOCCN=[N+]=[N-])C1CCC2C3CC[C@@H]4C[C@H](NC(=O)[C@H](CCCNC(=N)N)Nc5ccc([N+](=O)[O-])c6nonc56)CC[C@]4(C)C3CC[C@@]21C (some centres unmarked) : ____ 78 to 79 °C

Check C[C@H](CCC(=O)O)C1CCC2C3CC[C@@H]4C[C@H](NC(=O)[C@H](CC(=O)O)Nc5ccc([N+](=O)[O-])c6nonc56)CC[C@]4(C)C3CC[C@@]21C (some centres unmarked) too. 134 to 136 °C

Check C[C@H](CCC(=O)O)C1CCC2C3CC[C@@H]4C[C@H](NS(=O)(=O)c5cccc6cccnc56)CC[C@]4(C)C3CC[C@@]21C (some centres unmarked) too. 138 to 140 °C

Further cases:
Reported melting point, compound COc1cc2nc(Cl)nc(N[C@@H]3CC[C@]4(C)C5CC[C@@]6(C)C(CCC6[C@H](C)CCC(=O)O)C5CC[C@@H]4C3)c2cc1OC (some centres unmarked) : ____ 178 to 180 °C

Check C[C@H](CCC(=O)OCCN=[N+]=[N-])C1CC[C@H]2[C@@H]3CC[C@@H]4C[C@H](OC(=O)[C@H](CC(=O)O)Nc5ccc([N+](=O)[O-])c6nonc56)CC[C@]4(C)[C@H]3CC[C@]12C (some centres unmarked) too. 78 to 79 °C
